Data provenance: patent US20240270865A1

Target: T1, recombinant human soluble CD73 protein (cloned huCD73 with C-terminal 6xHis tag) (human, UniProt P21589 27-547)
T1 construct: also called recombinant CD73 protein; CD73 recombinant protein
T1 sequence: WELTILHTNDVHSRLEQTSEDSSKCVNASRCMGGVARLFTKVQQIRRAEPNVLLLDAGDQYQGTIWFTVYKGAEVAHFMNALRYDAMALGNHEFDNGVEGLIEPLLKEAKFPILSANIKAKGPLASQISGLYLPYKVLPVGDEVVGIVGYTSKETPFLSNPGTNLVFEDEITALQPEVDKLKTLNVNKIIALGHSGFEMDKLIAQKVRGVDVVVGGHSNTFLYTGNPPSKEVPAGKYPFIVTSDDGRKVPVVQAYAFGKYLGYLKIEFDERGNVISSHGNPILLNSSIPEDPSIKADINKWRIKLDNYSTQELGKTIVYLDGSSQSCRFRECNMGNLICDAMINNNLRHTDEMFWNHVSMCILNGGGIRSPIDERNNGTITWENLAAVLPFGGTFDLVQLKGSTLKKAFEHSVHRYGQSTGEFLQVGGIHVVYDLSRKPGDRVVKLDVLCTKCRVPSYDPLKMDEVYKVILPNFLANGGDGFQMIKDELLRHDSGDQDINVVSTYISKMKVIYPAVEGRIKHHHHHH
Assay: SPR, recombinant CD73 protein
observed property: binding result

H2L3 (antibody, human IgG1, V domains shown, also called H2 variant) VH: QIQLVQSGAEVKKPGASVKVSCKASGYAFTSYNMYWVRQAPGQSLEWMGYIDPYNGGSSYNLTFKGRVTITVDKSASTAYMELSSLRSEDTAVYYCARGYGNYKAWFAYWGQGTLVTVSS VL: DVQMTQSPSSLSASVGDRVTITCKASQSVSNDVAWYQQKPGKAPKLLIYYASTRYTGVPDRFSGSGYGTDFTFTISSLQPEDIATYYCQQDYSSLTFGQGTKLEIK : binds
H4L2 (antibody, human IgG1, V domains shown, also called H4 variant) VH: QIQLVQSGAEVKKPGASVKVSCKASGYAFASYNMYWVRQAPGQSLEWIGYIDPYNGGSSYNLTFKGKATLTVDKSASTAYMELSSLRSEDTAVYYCARGYGNYKAWFAYWGQGTLVTVSS VL: DIQMTQSPSSLSASVGDRVTITCKASQSVSNDVAWYQQKPGKAPKLLIYYASTRYTGVPDRFSGSGYGTDFTFTISSLQPEDIATYYCQQDYSSLTFGQGTKLEIK : binds
H4L1 (antibody, human IgG1, V domains shown, also called H4 variant) VH: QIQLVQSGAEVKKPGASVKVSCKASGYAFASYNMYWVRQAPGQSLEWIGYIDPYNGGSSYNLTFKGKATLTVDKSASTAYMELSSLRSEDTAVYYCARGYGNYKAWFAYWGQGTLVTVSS VL: DIQMTQSPSSLSASVGDRVTITCKASQSVSNDVAWYQQKPGKAPKLLIYYASTRYTGVPSRFSGSGYGTDFTFTISSLQPEDIATYYCQQDYSSLTFGQGTKLEIK : binds
